# Tgt: LAG3-Fc (rmLAG3-Fc) (mouse, UniProt Q61790 24-442)
# Sequence (Q61790 24-442): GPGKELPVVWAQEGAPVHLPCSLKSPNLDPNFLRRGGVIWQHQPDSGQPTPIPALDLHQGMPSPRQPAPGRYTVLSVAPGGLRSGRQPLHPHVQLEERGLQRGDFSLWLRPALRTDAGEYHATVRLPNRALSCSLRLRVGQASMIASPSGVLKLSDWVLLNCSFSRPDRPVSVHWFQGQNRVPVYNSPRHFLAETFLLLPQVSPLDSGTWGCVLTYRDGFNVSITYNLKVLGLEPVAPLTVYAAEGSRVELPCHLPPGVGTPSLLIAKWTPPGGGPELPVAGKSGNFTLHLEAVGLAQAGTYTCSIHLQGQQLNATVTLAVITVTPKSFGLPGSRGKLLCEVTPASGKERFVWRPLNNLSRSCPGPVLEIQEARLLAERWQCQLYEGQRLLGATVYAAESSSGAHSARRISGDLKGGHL
# Assay overview: SPR; apparent Kd from equilibrium RU; printed kon 1x10^3, koff <2.1x10^-4 s-1 do not match it; Filter binding: 20 mM HEPES pH 7.4, 150 mM NaCl, 2 mM CaCl2, 37 C, 30 min; SPR: PBS, 0.005% Tween 20, pH 7.4, temperature not stated
# Test settings: protein: recombinant; tags: human IgG2-Fc fusion; chain copies: 2
Reported property: pKd
Reminder that pKd is minus the log10 of a molar concentration.

Reported pKd for LAG3 Apt1, biotinylated (structured_RNA, 2'-F-U, 2'-F-C) RNA: GGGAGAGAGAUAUAAGGGCCUCCUGAUACCCGCUGCUAUCUGGACCGAUCCCAUUACCAAAUUCUCUCCC : what is it? 8.57
